# system name: T1, cyno pro-myostatin (cynomolgus monkey, Biotinylated for capture in the SPR assay (site not stated). The native form is a disulfide-linked homodimer, partly furin-cleaved; one chain is given.)
# T1 construct: also called proGDF8 (cynomolgus); cynomolgus monkey pro-myostatin
# protocol: SPR Biacore 8K, biotin-antigen captured
readout type: Kd (nM)
State the answer as a number, implicitly in nM.

>  <binder>
Ab141 (antibody, human IgG4 S228P, kappa, V domains shown) VH: EVQLVESGGGLVQPGGSLRLSCAASGFTFSSYGMSWVRQAPGKGLELVASFTGSGGAYYPDSVKGRFTISRDNAKNSLYLQMNSLRAEDTAVYYCARDLLIRFLEWSHYYGMDVWGQGTTVTVSS VL: DIVMTQSPLSLPVTPGEPASISCRSSQSLLHSSGHNFLHWYLQKPGQSPQLLIYEVSNRVSGVPDRFSGSGSGTDFTLKISRVEAEDVGVYYCMQQTQYPGTFGGGTKVEIKR

>  <reading unit>
nM

>  <recorded measurement>
0.0369

$$$$
>  <binder>
Ab112 (antibody, human IgG4 S228P, kappa, V domains shown) VH: QVQLVQSGAEVKKPGASVKVSCKVSGGTFGIYAIHWVRQAPGKGLEWMGGTIPVFGTAIYAQKFQGRVTMTEDTSTDTAYMELSSLKSEDTAVYYCASLTGIAAAGTHPARGGMDVWGQGTTVTVSS VL: DIQMTQSPSSVSASVGDRVTITCRASPSISSYLAWYQQKPGKAPKLLIYAASRLQSGVPSRFSGSGSGTDFTLTISSLQPEDFANYYCQEYLSFPLTFGGGTKVEIKR

>  <reading unit>
nM

>  <recorded measurement>
0.601

$$$$
>  <binder>
Ab133 (antibody, human IgG4 S228P, kappa, V domains shown, human IgG4 in the EM experiment; also called Ab133 Human IgG4) VH: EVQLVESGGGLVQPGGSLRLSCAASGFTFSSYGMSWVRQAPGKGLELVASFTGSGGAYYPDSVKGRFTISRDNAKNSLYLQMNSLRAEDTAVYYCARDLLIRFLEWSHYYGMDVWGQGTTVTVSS VL: DIVMTQSPLSLPVTPGEPASISCRSSQSLLHSSGHNFLHWYLQKPGQSPQLLIYEVSNRVSGVPDRFSGSGSGTDFTLKISRVEAEDVGVYYCQQQTQYPGTFGGGTKVEIKR

>  <reading unit>
nM

>  <recorded measurement>
0.0383

$$$$
>  <binder>
Ab101 (antibody, human IgG4 S228P, kappa, V domains shown) VH: EVQLVESGGGLVQPGGSLRLSCAASGSAFSSYGMSWVRQAPGKGLELVASINSNGGSTYYPDSVKGRFTISRDNAKNSLYLQMNSLRAEDTAVYYCARDLLVRFLEWSHYYGMDVWGQGTTVTVSS VL: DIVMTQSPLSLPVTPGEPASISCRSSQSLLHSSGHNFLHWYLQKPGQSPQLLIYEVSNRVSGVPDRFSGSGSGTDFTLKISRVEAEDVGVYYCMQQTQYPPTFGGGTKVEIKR

>  <reading unit>
nM

>  <recorded measurement>
0.065

$$$$
>  <binder>
Ab103 (antibody, human IgG4 S228P, kappa, V domains shown) VH: EVQLVESGGGLVQPGGSLRLSCAASGYTFSSYGMSWVRQAPGKGLELVASITGDAGRTYYPDSVKGRFTISRDNAKNSLYLQMNSLRAEDTAVYYCARDTLVRFLEWSHYYGMDVWGQGTTVTVSS VL: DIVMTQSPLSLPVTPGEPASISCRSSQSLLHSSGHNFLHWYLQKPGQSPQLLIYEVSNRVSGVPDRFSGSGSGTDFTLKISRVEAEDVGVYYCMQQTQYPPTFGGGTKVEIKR

>  <reading unit>
nM

>  <recorded measurement>
0.252

$$$$

Continue with the binder presented below.
Prompt line: Specify reported Kd for the binder shown: Ab127 (antibody, human IgG4 S228P, kappa, V domains shown) VH: EVQLVESGGGLVQPGGSLRLSCTASGFTFGSYPMDWVRQAPGKGLEWVSYISGRGDVTYYADSVKGRFTISRDNAKNTLYLQMNSLRAEDTAVYYCAKVQSPSELLWFGELLPVDYWGQGTLVTVSS VL: DIQMTQSPSSLSASVGDRVTITCQASQVIKTWLNWYQQKPGKAPKLLIYDASNLQRGVPSRFSGSGSGTDFTFTISSLQPEDIATYYCQQSASTPITFGGGTKVEIKR
Response line: 0.327
